experimental.target: Transient receptor potential cation channel subfamily V member 4 (Homo sapiens)
Sequence (Q9HBA0 whole entry): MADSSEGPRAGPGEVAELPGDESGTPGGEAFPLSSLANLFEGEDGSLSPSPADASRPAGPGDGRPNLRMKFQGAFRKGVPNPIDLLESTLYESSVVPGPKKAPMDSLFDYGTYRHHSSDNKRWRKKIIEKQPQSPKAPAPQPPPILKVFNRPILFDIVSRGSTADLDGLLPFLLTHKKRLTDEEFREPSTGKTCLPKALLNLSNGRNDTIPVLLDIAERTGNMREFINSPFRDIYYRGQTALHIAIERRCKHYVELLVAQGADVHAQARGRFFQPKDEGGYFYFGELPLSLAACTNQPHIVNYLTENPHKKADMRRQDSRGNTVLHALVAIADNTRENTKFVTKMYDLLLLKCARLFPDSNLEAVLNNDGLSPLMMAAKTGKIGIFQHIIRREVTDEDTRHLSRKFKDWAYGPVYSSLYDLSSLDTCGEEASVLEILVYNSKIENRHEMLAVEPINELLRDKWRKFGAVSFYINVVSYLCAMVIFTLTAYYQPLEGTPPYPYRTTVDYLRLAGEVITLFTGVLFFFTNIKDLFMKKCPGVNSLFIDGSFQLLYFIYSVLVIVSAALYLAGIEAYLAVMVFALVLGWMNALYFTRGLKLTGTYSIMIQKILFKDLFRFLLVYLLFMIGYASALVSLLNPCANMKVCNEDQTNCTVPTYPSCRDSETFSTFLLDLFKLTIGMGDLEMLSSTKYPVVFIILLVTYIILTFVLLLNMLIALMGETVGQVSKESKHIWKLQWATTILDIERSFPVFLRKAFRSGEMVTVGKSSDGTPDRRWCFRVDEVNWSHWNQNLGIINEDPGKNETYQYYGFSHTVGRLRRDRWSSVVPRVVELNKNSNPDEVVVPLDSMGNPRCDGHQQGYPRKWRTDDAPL
assay.procedure: Inhibition of human TRPV4 expressed in baculovirus infected HEK/MSR 2 cells pre-incubated for 10 mins followed by GSK634775A addition by Fura-2 dye based FLIPR assay
metric: IC50 (µM)

Example results:
| molecule | experimental.target | units.label | IC50 |
| --- | --- | --- | --- |
| Cc1ccccc1N1C[C@@]2(CCC[C@](C)(Cn3cnc4ccc(C#N)cc43)C2)OC1=O | Transient receptor potential cation channel subfamily V member 4 (Homo sapiens) | µM | 0.0017 |
| N#Cc1ccc2ncn(C[C@H]3CCC[C@]4(C3)CN(c3ccccc3F)C(=O)O4)c2c1 | Transient receptor potential cation channel subfamily V member 4 (Homo sapiens) | µM | 0.54 |
| CC(C)(C)N1C[C@@]2(CCC[C@H](Cn3cnc4ccc(C#N)cc43)C2)OC1=O (racemic) | Transient receptor potential cation channel subfamily V member 4 (Homo sapiens) | µM | 5.2 |
| COc1ccccc1N1C[C@@]2(CCC[C@](C)(Cn3cnc4ccc(C#N)cc43)C2)OC1=O | Transient receptor potential cation channel subfamily V member 4 (Homo sapiens) | µM | 0.0012 |
| N#Cc1ccc2ncn(C[C@H]3CCC[C@]4(C3)CN(c3ccccc3Cl)C(=O)O4)c2c1 | Transient receptor potential cation channel subfamily V member 4 (Homo sapiens) | µM | 0.063 |

a = C[C@]1(Cn2cnc3ccc(C#N)cc32)CCC[C@@]2(CN(c3cccc(Cl)c3)C(=O)O2)C1
b = COc1ccccc1N1C[C@@]2(CCC[C@H](Cn3cnc4ccc(C#N)cc43)C2)OC1=O
Enquiry: // compare: a vs b , metric IC50, want the smaller // return label of chosen record
Return: a

A = CCOc1ccc(N2C[C@@]3(CCC[C@H](Cn4cnc5ccc(C#N)cc54)C3)OC2=O)cc1
B = N#Cc1ccc2ncn(C[C@H]3CCC[C@]4(C3)CN(c3cccc(Cl)c3)C(=O)O4)c2c1
Enquiry: Between the two listed entries A and B , which has its IC50 at the higher number? // return label of chosen record
Return: B

Attribution: ChEMBL document CHEMBL4304797
